Values from the RNAGym collection of RNA variant scans (doi:10.7554/elife.90254)

B1: OR4K15 (parent)
chain: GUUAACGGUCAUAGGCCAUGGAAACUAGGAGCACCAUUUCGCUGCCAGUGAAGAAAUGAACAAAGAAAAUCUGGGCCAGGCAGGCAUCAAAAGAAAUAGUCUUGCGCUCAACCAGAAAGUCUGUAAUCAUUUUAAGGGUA

Variants of: B1
Test: self-cleavage, relative activity (ratio to wild type); higher = more cleavage; in vitro, sequencing; the parent is a self-cleaving ribozyme
Kindly state self-cleavage for each of the entries shown.
Form rule: numeric answer, no unit written next to it.

# self-cleavage of A18G C32U = 1.17

The recorded self-cleavage for entry `C109G` equals 0.02

Form: variant = U57A U108A ; self-cleavage = 0.03

Value of measured self-cleavage for the entry A95G C107U : 0.01

Reported self-cleavage ( A92G A111G ) = 0.02

# self-cleavage of A51C U124C = 0.98

Record summary for U2G A89G : reported self-cleavage = 0.3

Just so you know, measured self-cleavage for A59G A68G came out at 1.22

response.value for G31U A54G (field: self-cleavage) = 1.34

Input A62C A94G . Output self-cleavage: 1.61

Record A96G U102G . Reported self-cleavage: 1.08

# self-cleavage (variant: A62U A66G ) is 1.58

Reported self-cleavage of A51U A52U : 1.99

// self-cleavage value for A30C A51U : 2.04

Reported self-cleavage ( A27G A68G ) = 1.13

The value of self-cleavage measured for the variant A96U A135C turned out to be 1.11

Measured self-cleavage of U12C U37G : 1.92

For A66G A116U the variant record lists self-cleavage as 0.7

Lookup result for A5C A68G ; measured self-cleavage: 1.63

Lookup result for A117C G136A ; measured self-cleavage: 0.78

GET /value?item= C16G A135G &field=self-cleavage returns 0.74

// self-cleavage lookup, variant = G41A A56G , result: 2.07

Entry A22G A67C — recorded self-cleavage = 1.6

GET /value?item= A36U A135C &field=self-cleavage returns 1.65

Form: variant = A54G A86U ; self-cleavage = 1.71

Summary for this variant, A59G U131C : self-cleavage is 0.71

Record A64G U108C . Reported self-cleavage: 0.01

According to the records, this variant C35U U103C displays self-cleavage of 0.29

Record summary for U57A A62G : reported self-cleavage = 1.13

Entry A117U A125G — recorded self-cleavage = 0.99

The variant listed as A64G A92G has a reported self-cleavage of 1.48

# self-cleavage (variant: A52G A111G ) is 0.03

So for A24G A56G , the logged self-cleavage turned out to be 1.25

Kindly note the recorded self-cleavage for U2G A62G , which is 0.65

Noted for U72C C105A : its self-cleavage reads 0.03

The measured self-cleavage associated with U39C A140U reads 1.62

Memo: A91G A96G , reported self-cleavage: 1.3

Record U3C U130A , field self-cleavage: 1.27

Record A4G A52U , field self-cleavage: 0.92

Looking up A5U U102C , I found its self-cleavage recorded as 1.69

The variant listed as A82G A129U has a reported self-cleavage of 0.22

Entry G106A U139A ; self-cleavage = 0

Consider A30U A86G . Its measured self-cleavage is 1.87

The reported value for C105G G136U in terms of self-cleavage is 0.02

Kindly note the recorded self-cleavage for A59U A64G , which is 1.4

Recorded result, U102G U133A , self-cleavage: 1.45

Short answer for A59U U72A : self-cleavage was 0.14

self-cleavage measured on C6U A56G = 0.64

The measured self-cleavage associated with U38G A62G reads 1.59

self-cleavage recorded for this variant, A18G G115U , is 0.14

Record A13G A118G . Reported self-cleavage: 0.96

Lookup result for U43A G74C ; measured self-cleavage: 0.23

The variant listed as A5G A67C has a reported self-cleavage of 0.63

So, A33U A114U ? Its self-cleavage was 0.08

Entry U72C G138A ; self-cleavage = 0.49

// field: self-cleavage; key: C77U U102A ; value = 1.57

The variant identified as U49C G74A registered its self-cleavage at 0.09

Record G75A G93A , field self-cleavage: 0.14

# variant G31A U57C ; its self-cleavage = 1.2

Just so you know, measured self-cleavage for U100A A140U came out at 0.83

For U49A A140G the variant record lists self-cleavage as 1.41

The variant U9C G75A showed self-cleavage equal to 0.08

// U26C A114U : self-cleavage value = 0.07

Looking up U19C U49A , I see its self-cleavage listed as 1.38

self-cleavage recorded for this variant, U12A U49A , is 0.48

Item: C71U U72A | self-cleavage: 0.19

# variant U70A A118G ; its self-cleavage = 0.37

// self-cleavage lookup, variant = A78U U131C , result: 0.17
